Target or system UniProt P11715; recorded quantity IC50.

Known results for compounds:
compound | measured on | IC50
CCOC(=O)c1ccc(-c2ccc(C(CC)n3ccnc3)nc2)cc1 (stereo not shown) | UniProt P11715 | 50 to 200 nM
CCC(c1cnc(-c2ccc(OC)nc2)s1)n1ccnc1 (stereo not shown) | UniProt P11715 | < 50 nM
CC(c1ccc(-c2ccc(N)cc2)cn1)n1ccnc1 (stereo not shown) | UniProt P11715 | 50 to 200 nM
CCC(c1ccc(-c2ccc(OC)cc2)cn1)n1ccnc1 (stereo not shown) | UniProt P11715 | < 50 nM

So what does the record say about IC50 for CC(c1ccc(-c2ccc(F)cc2)cn1)n1ccnc1 (stereo not shown) [Example 34] ? < 50 nM

Same read-out for CCC(c1ccc(-c2ccc(C#N)cc2)cn1)n1ccnc1 (stereo not shown) ? < 50 nM

Same read-out for CCC(c1nnc(-c2ccc(F)cc2)s1)n1ccnc1 (stereo not shown) ? < 50 nM

Same read-out for CCC(c1ccc(-c2ccc(C(=O)NC)cc2)cn1)n1ccnc1 (stereo not shown) ? < 50 nM

Same read-out for CC(c1cnc(-c2ccc(C#N)cc2)s1)n1ccnc1 (stereo not shown) ? < 50 nM

Same read-out for CC(c1ccc(-c2ccc(F)cc2)nc1)n1ccnc1 (stereo not shown) ? < 50 nM

====

Molecular target: human CYP17 (Homo sapiens)
Assay: Cell-based human CYP17 inhibition assay, H295R adrenocortical carcinoma cells
Set-up: H295R Adrenocortical carcinoma cells [NCI-H295A, ATCC Number CRL-2128, American Type Culture Collection; host or cells: H295R adrenocortical carcinoma cells
Conditions: 16 hours at 37° C., read-out: CYP17 (human H295R adrenal cells)
The entries below are paired with their reported IC50.

molecule | observable | result
CCC(c1ccc(-c2ccc(CO)cc2)cn1)n1ccnc1 (stereo not shown) | IC50 | 50 to 200 nM

Checklist item: IC50 tested on human CYP17 (Homo sapiens), entry CCC(c1ccc(-c2ccc(OC)cc2)o1)n1ccnc1 (stereo not shown) , value? < 50 nM

Same read-out for CCC(c1ccc(-c2ccccc2OC)cn1)n1ccnc1 (stereo not shown) ? 50 to 200 nM

Same read-out for CC(c1ccc(-c2ccc(=O)n(C)c2)s1)n1ccnc1 (stereo not shown) ? < 50 nM

Same read-out for COc1ccc(-c2ccc(C(C)n3ccnc3)s2)cn1 (stereo not shown) ? < 50 nM

Same read-out for CCC(c1ccc(-c2ccc(F)cc2)cn1)n1ccnc1 (stereo not shown) ? < 50 nM

Same read-out for CCC(c1ccc(-c2ccc(C(=O)O)cc2)cn1)n1ccnc1 (stereo not shown) ? 201 to 10000 nM

Same read-out for CCC(c1cnc(-c2ccc(OC)cc2)s1)n1ccnc1 (stereo not shown) ? 50 to 200 nM

Same read-out for CC(C)(c1ccc(-c2ccc(O)cc2)s1)n1ccnc1 ? < 50 nM

Same read-out for CCOC(=O)c1ccc(-c2ncc(C(C)n3ccnc3)s2)cc1 (stereo not shown) ? 50 to 200 nM

====

Target: human CYP17 (Homo sapiens)
Test: Cell-based human CYP17 inhibition assay, H295R adrenocortical carcinoma cells
Parameters: H295R Adrenocortical carcinoma cells [NCI-H295A, ATCC Number CRL-2128, American Type Culture Collection; host or cells: H295R adrenocortical carcinoma cells
Details: 16 hours at 37° C., read-out: CYP17 (human H295R adrenal cells)
pIC50: −log10 of the molar value.
The entries below are paired with their reported pIC50.

compound | pIC50
CCC(c1ccc(-c2ccc(C#N)cc2)cn1)n1ccnc1 (stereo not shown) [Example 17] | 6.70 to 7.30
CCC(c1ccc(-c2ccc(NC(C)=O)cc2)cn1)n1ccnc1 (stereo not shown) [Example 43] | 6.70 to 7.30
CCC(c1ccc(-c2ccccc2O)cn1)n1ccnc1 (stereo not shown) [Example 37] | > 7.30

# evaluate next
So what does the record say about pIC50 for CCC(c1ccc(-c2ccc(O)cc2)cn1)n1ccnc1 (stereo not shown) [Example 50] ? > 7.30

====

Target or system rat CYP17 (Rattus norvegicus); recorded quantity IC50.

Known results for compounds:
compound | IC50
CCC(c1cnc(-c2ccc(NC(=O)OC(C)(C)C)cc2)s1)n1ccnc1 (stereo not drawn) [Example 31] | < 50 nM
CCC(c1cnc(-c2ccc(F)cc2F)s1)n1ccnc1 (stereo not drawn) [Example 32] | < 50 nM

# evaluate next
So what does the record say about IC50 for CCC(c1ccc(-c2ccccc2F)cn1)n1ccnc1 (stereo not drawn) [Example 48] ? < 50 nM

====

Molecular target: human CYP17 (Homo sapiens, UniProt P05093)
Assay: Cell-based human CYP17 inhibition assay, H295R adrenocortical carcinoma cells
Parameters: H295R Adrenocortical carcinoma cells [NCI-H295A, ATCC Number CRL-2128, American Type Culture Collection; host or cells: H295R adrenocortical carcinoma cells
Settings: 16 hours at 37° C., read-out: CYP17 (human H295R adrenal cells)
The entries below are paired with their reported IC50.

Known results for compounds:
compound | measured on | IC50
CCC(c1ccc(-c2ccc(OC)cc2)s1)n1ccnc1 (stereo not shown) | human CYP17 (Homo sapiens, UniProt P05093) | < 50 nM
COc1ccc(-c2cccc(C(C)n3ccnc3)n2)cc1 (stereo not shown) | human CYP17 (Homo sapiens, UniProt P05093) | 50 to 200 nM
CC(c1cnc(-c2ccc(C(=O)O)cc2)s1)n1ccnc1 (stereo not shown) | human CYP17 (Homo sapiens, UniProt P05093) | 201 to 10000 nM

So what does the record say about IC50 for CC(c1cnc(-c2ccc(=O)[nH]c2)s1)n1ccnc1 (stereo not shown) ? 201 to 10000 nM

Same read-out for CC(c1ccc(-c2ccc(F)cc2)cn1)n1ccnc1 (stereo not shown) [Example 12] ? < 50 nM

Same read-out for CC(C)(c1ccc(-c2ccc(O)cc2)cn1)n1ccnc1 ? 50 to 200 nM

====

System: testosterone production in H295R cells
Assay: Cell-based functional assay for testosterone production in H295R cells
Conditions: Homo sapiens, NCI-H295R, 72 hours, testosterone ELISA, read-out: Testosterone (human H295R adrenal cells)
pIC50: −log10 of the molar value.
observable: pIC50

Known results for molecules:
molecule | pIC50
CC(c1ccc(-c2ccc(F)cc2)cn1)n1ccnc1 (centres unmarked) | 5.00 to 6.70
CC(c1ccc(-c2ccc(=O)n(C)c2)s1)n1ccnc1 (centres unmarked) | > 7.30

So what does the record say about pIC50 for CC(c1cnc(-c2ccc(F)cc2F)s1)n1ccnc1 (centres unmarked) ? 6.70 to 7.30

Same read-out for CC(c1cnc(-c2ccc(C#N)cc2)s1)n1ccnc1 (centres unmarked) ? 5.00 to 6.70

Same read-out for CC(c1ccc(-c2ccc(=O)n(C(C)C)c2)s1)n1ccnc1 (centres unmarked) ? 5.00 to 6.70

====

Target: human CYP17 (Homo sapiens, UniProt P05093)
Sequence (P05093 1-508): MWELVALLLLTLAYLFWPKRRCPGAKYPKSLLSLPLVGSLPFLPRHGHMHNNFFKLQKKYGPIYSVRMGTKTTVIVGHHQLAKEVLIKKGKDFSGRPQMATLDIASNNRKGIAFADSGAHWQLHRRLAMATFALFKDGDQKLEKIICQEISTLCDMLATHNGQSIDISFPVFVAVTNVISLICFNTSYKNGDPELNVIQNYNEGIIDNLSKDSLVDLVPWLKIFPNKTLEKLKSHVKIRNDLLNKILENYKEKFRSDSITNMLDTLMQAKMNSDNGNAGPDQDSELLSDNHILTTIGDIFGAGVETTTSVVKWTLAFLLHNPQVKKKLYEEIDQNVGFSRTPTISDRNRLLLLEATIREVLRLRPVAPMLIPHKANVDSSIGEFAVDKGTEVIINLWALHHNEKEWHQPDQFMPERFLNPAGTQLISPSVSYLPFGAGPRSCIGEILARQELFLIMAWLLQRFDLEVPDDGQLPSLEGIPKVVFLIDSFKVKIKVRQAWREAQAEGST
Assay: Cell-based human CYP17 inhibition assay, H295R adrenocortical carcinoma cells
Set-up: H295R Adrenocortical carcinoma cells [NCI-H295A, ATCC Number CRL-2128, American Type Culture Collection; host or cells: H295R adrenocortical carcinoma cells
Conditions: 16 hours at 37° C., read-out: CYP17 (human H295R adrenal cells)
Method: Cell-Based Human CYP17 Inhibition Assay A. Materials • 1. H295R Adrenocortical Carcinoma Cells and Growth Media: The media for the H295R Adrenocortical carcinoma cells [NCI-H295A, ATCC Number CRL-2128, American Type Culture Collection, Manassas, Va., US] […] The plates were incubated overnight (16 hours) at 37° C. […] Following the incubation for 30 minutes, readings for the radiotracer were taken using a Microbeta® trilux.
The entries below are paired with their reported IC50.

Known results for compounds:
compound | result
CCC(c1cnc(-c2ccc(F)cc2)s1)n1ccnc1 (stereo not drawn) [Example 33] | < 50 nM
CCC(c1cnc(-c2ccc(NC(=O)OC(C)(C)C)cc2)s1)n1ccnc1 (stereo not drawn) [Example 31] | < 50 nM
CCC(c1ccc(-c2ccc(COCOC)cc2)cn1)n1ccnc1 (stereo not drawn) [Example 11] | 50 to 200 nM
CCC(c1ccc(-c2cccc(C#N)c2)cn1)n1ccnc1 (stereo not drawn) [Example 53] | 50 to 200 nM
COc1ccc(-c2ccc(C(C)(C)n3ccnc3)s2)cc1 [Example 24] | < 50 nM

# evaluate next
Checklist item: IC50 tested on human CYP17 (Homo sapiens, UniProt P05093), entry CCC(c1ccc(-c2ccccc2F)cn1)n1ccnc1 (stereo not drawn) [Example 48] , value? < 50 nM
